B1: library; numbered along this chain (parent)
chain: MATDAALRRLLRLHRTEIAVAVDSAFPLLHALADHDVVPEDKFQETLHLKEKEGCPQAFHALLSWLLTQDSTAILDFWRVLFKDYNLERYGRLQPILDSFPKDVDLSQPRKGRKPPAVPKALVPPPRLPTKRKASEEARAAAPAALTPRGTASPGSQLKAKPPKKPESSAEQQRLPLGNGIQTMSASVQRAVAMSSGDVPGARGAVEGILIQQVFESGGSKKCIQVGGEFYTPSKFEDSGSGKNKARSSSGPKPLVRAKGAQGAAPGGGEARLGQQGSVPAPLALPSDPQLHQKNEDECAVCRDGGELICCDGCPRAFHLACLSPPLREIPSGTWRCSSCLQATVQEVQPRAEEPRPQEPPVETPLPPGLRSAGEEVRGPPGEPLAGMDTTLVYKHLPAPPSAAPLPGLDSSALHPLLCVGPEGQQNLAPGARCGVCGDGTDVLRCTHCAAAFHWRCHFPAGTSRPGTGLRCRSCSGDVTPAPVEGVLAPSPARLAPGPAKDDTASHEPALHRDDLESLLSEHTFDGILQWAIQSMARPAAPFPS

Variants of: B1
EXPERIMENT DESCRIPTION: AIRE transcriptional activation functional score (insulin promoter-GFP; nonsense median 0, synonymous median 1) (normalised score); higher = higher AIRE activity (more reporter activation)
CONDITIONS: with insulin promoter-GFP reporter in HEK293
Tick condition met if AIRE transcriptional activation functional score is 0.7 or greater. Tick condition not met if AIRE transcriptional activation functional score is less than 0.7.

Below, 2 variants whose answers are already recorded.
var=C311Y discrete_label="condition met"
var=Q44H discrete_label="condition not met"

Query: Given `G228D` , state whether its AIRE transcriptional activation functional score is at least 0.7.
Result: condition met

Query: Given `K245A` , state whether its AIRE transcriptional activation functional score is at least 0.7.
Result: condition met

Ref: the supplement of paper PMC12667976
